The values you see were collected from patent US10160755B2.

Target: FLT3-D835Y (Homo sapiens, UniProt P36888, D835Y)
Construct: purchased Invitrogen PV3967
Test: FLT3-D835Y biochemical kinase assay (AlphaScreen)
Overview of reported IC50 across a group of molecules:

Consider the following illustrative entries.
molecule: CC(C)(C)n1cnc2ccc(-c3c[nH]c4ncc(-c5cccc(N6CCNCC6)c5)nc34)cc21
IC50: 0.0001 to 1 µM
//
molecule: CCS(=O)(=O)Nc1cccc(-c2cnc3[nH]cc(-c4ccc5ncsc5c4)c3n2)c1
IC50: 0.0001 to 1 µM
//
molecule: CC(C)(C)n1cnc2ccc(-c3c[nH]c4ncc(-c5ccc(N6CCCS6(=O)=O)cc5)cc34)cc21
IC50: 0.0001 to 1 µM
//
molecule: COc1cnc2[nH]cc(-c3ccc4ncn(Cc5ccc(F)cc5)c4c3)c2c1
IC50: 0.0001 to 1 µM
//
molecule: O=S1(=O)CCCN1c1ccc(-c2cnc3[nH]cc(-c4ccc5ncn(C6CCCNC6)c5c4)c3c2)cc1 (stereo not shown)
IC50: 0.0001 to 1 µM

**Query** Entry under review: COc1cc(-c2cnc3[nH]cc(-c4ccc5ncsc5c4)c3n2)cc(C)n1 . Reported IC50?
**Result** 0.0001 to 1 µM

**Query** Can you share its IC50? I mean this molecule: CC(C)S(=O)(=O)Nc1cccc(-c2cnc3[nH]cc(-c4ccc5ncn(C6CCCNC6)c5c4)c3c2)c1 (stereo not shown)
**Result** 0.0001 to 1 µM

**Query** Reported IC50, molecule Cn1cnc2ccc(-c3c[nH]c4ncc(-c5cccc(C(F)(F)F)c5)cc34)cc21 : ____
**Result** 0.0001 to 1 µM

**Query** Field request: IC50 | item: CC(C)(C)n1cnc2ccc(-c3c[nH]c4ncc(C5=CCN(C(=O)C6CC6)C5)cc34)cc21
**Result** 0.0001 to 1 µM

**Query** Requested read-out: IC50. Entry: CC(C)S(=O)(=O)Nc1cccc(-c2cnc3[nH]cc(-c4ccc5ncn(C)c5c4)c3n2)c1
**Result** 0.0001 to 1 µM

**Query** # query: IC50 of entry O=S1(=O)CCCN1c1cc(-c2cnc3[nH]cc(-c4ccc5ncn(C6CCCNC6)c5c4)c3c2)ccn1 (stereo not shown)
**Result** 0.0001 to 1 µM

###

Recorded IC50 for the following molecules
Target: FLT3-D835Y (Homo sapiens, UniProt P36888, D835Y)
Construct: purchased Invitrogen PV3967
Sequence (P36888 27-993 D835Y): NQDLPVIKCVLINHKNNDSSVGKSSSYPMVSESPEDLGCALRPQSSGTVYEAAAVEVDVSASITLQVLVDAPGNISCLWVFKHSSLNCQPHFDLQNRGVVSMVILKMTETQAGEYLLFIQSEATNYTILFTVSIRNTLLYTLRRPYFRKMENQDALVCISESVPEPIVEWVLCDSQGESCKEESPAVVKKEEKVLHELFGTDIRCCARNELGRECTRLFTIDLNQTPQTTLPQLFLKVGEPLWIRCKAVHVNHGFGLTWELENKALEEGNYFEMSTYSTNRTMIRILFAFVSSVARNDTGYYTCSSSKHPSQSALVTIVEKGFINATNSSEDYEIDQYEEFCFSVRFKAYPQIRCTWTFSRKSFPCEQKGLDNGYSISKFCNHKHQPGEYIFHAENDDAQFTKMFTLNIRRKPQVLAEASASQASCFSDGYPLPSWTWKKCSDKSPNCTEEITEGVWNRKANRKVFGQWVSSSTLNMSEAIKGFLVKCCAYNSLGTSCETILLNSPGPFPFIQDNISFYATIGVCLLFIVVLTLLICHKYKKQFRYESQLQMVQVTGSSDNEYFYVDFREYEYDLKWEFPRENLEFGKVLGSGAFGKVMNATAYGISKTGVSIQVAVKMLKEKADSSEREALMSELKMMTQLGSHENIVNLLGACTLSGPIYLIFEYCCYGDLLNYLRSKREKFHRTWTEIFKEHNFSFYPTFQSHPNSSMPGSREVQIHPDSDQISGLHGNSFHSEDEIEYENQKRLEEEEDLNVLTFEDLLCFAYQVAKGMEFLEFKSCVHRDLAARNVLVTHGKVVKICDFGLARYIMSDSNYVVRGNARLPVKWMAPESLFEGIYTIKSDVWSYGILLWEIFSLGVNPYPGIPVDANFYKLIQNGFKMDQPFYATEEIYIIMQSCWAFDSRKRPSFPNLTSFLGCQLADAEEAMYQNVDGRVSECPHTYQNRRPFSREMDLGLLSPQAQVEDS
Assay: FLT3-D835Y biochemical kinase assay (AlphaScreen)

**Query** Data request, read-out IC50, for COc1cc(C#Cc2cnc3[nH]cc(-c4ccc5ncn(C6CCCNC6)c5c4)c3c2)ccn1 (stereo not shown)
**Result** 0.0001 to 1 µM

**Query** Name the recorded IC50 for Cc1cc(C#Cc2cnc3[nH]cc(-c4ccc5ncn(C6CCCNC6)c5c4)c3n2)cc(C)n1 (stereo not shown) .
**Result** 0.0001 to 1 µM

**Query** Fill in the blank: the reported IC50 of COc1cc(-c2cnc3[nH]cc(-c4ccc5ncn(-c6ccc(F)cc6)c5c4)c3c2)cc(OC)n1 is ____.
**Result** 0.0001 to 1 µM

**Query** Fill blank: measured IC50 of the molecule CC(C)(C)n1cnc2ccc(-c3c[nH]c4nnc(Cl)cc34)cc21 is ____.
**Result** 0.0001 to 1 µM

###

Biological target: FLT3-D835Y (Homo sapiens, UniProt P36888, D835Y)
Construct: purchased Invitrogen PV3967
Assay: FLT3-D835Y biochemical kinase assay (AlphaScreen)
measurementName: IC50

compound: c1nc2cc(-c3c[nH]c4ncc(OCC5CC5)cc34)ccc2[nH]1
observed: 1 to 10 µM

compound: CCCn1cnc2cc(-c3c[nH]c4ncc(OC)cc34)ccc21
observed: 0.0001 to 1 µM

compound: COc1cnc2[nH]cc(-c3ccc4ncn(CC(F)(F)F)c4c3)c2c1
observed: 0.0001 to 1 µM

compound: N#Cc1cccc(-c2cnc3[nH]cc(-c4ccc5ncsc5c4)c3n2)c1
observed: 0.0001 to 1 µM

Consider now this further compound.
**Query** Consider the compound shown here: COc1cnc2[nH]cc(-c3ccc4ncn(C5CCNC5)c4c3)c2c1 (centres unmarked) What is its recorded IC50?
**Result** 0.0001 to 1 µM

###

Measured IC50, listed per entry.
Target: c-Kit (Homo sapiens, UniProt P10721)
Sequence (P10721 26-976): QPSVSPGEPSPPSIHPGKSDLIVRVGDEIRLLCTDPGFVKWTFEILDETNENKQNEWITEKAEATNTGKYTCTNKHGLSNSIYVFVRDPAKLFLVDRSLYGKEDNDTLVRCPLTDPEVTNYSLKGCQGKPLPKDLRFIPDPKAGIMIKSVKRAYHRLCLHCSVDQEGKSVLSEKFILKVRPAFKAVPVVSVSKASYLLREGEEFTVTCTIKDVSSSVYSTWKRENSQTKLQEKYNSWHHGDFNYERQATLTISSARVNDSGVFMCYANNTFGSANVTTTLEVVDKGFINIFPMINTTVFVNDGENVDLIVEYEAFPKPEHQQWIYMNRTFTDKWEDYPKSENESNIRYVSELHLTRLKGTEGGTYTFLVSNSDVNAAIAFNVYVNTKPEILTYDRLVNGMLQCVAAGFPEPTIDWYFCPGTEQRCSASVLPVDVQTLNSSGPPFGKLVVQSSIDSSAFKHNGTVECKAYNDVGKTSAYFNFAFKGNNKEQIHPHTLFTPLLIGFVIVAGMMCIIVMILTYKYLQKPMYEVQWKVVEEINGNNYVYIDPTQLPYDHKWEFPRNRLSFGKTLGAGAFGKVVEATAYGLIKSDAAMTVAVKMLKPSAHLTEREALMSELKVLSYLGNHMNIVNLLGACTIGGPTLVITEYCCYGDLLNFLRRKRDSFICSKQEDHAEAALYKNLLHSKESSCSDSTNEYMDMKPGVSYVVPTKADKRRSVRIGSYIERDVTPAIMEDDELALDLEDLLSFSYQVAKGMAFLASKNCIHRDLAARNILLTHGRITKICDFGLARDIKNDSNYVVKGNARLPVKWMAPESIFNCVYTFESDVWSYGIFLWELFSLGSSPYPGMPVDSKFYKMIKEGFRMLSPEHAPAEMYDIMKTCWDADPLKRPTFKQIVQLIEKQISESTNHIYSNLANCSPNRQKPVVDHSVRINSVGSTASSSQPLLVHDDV
Assay: c-Kit biochemical assay (per US 2007/0032519)

Some compounds with recorded IC50:
recordSmiles: Cn1cc(-c2ccc(-c3cnc4[nH]cc(-c5ccc6ncn(C(C)(C)C)c6c5)c4n3)cc2)cn1
IC50: 1 to 10 µM
--
recordSmiles: Cn1cnc2ccc(-c3c[nH]c4ncc(-c5ccc(S(=O)(=O)N6CCCC6)cc5)cc34)cc21
IC50: 0.0001 to 1 µM
--
recordSmiles: COc1cnc2[nH]cc(-c3cnc4c(c3)ncn4C)c2c1
IC50: 10 to 200 µM

**Query** I'd like to know its IC50. The compound in question is CC(C)N1CCOc2ccc(-c3c[nH]c4ncc(-c5cccc(NS(C)(=O)=O)c5)nc34)cc21
**Result** 10 to 200 µM

**Query** Record request: IC50 value, item COc1cnc2[nH]cc(-c3ccc4ncn(-c5ccc(F)c(C)c5)c4c3)c2c1
**Result** 10 to 200 µM

**Query** What IC50 value was documented for this compound, CC(C)(C)n1cnc2ccc(-c3c[nH]c4ncc(-c5cccc(NS(C)(=O)=O)c5)nc34)cc21 ?
**Result** 0.0001 to 1 µM

**Query** Could you share which IC50 value was measured for Cn1cnc2ccc(-c3c[nH]c4ncc(-c5ccc(NS(C)(=O)=O)cc5)nc34)cc21 ?
**Result** 1 to 10 µM

**Query** Param item = CS(=O)(=O)Nc1cccc(-c2cnc3[nH]cc(-c4ccc5c(c4)OC(F)(F)O5)c3n2)c1 ; retrieve measured IC50.
**Result** 10 to 200 µM

**Query** Value lookup for IC50; key = c1cnc2[nH]cc(-c3ccc4[nH]nnc4c3)c2c1
**Result** 10 to 200 µM

**Query** Give its IC50 value. Item: COc1cc(-c2cnc3[nH]cc(-c4ccc5ncn(C)c5c4)c3c2)ccc1Cl
**Result** 0.0001 to 1 µM

###

Target: FLT3-ITD (Homo sapiens)
Construct: FLT3-ITD; Invitrogen #PV6190
Assay: FLT3-ITD biochemical kinase assay (AlphaScreen)
Some compounds, each annotated with its measured IC50.

# example entries with known answers
compound: CN(c1cccc(-c2cnc3[nH]cc(-c4ccc5ncn(C)c5c4)c3c2)c1)S(C)(=O)=O [P-120]
assaySystem: FLT3-ITD (Homo sapiens)
IC50: 0.0001 to 1 µM
//
compound: COc1ncc(-c2cnc3[nH]cc(-c4ccc5ncn(C(C)(C)C)c5c4)c3n2)cc1F [P-385]
assaySystem: FLT3-ITD (Homo sapiens)
IC50: 0.0001 to 1 µM
//
compound: COc1cc(-c2cnc3[nH]cc(-c4ccc5ncn(C6CCCN(C(C)=O)C6)c5c4)c3n2)ccn1 (centres unmarked) [P-260]
assaySystem: FLT3-ITD (Homo sapiens)
IC50: 0.0001 to 1 µM

**Query** Report IC50 for COc1cnc2[nH]cc(-c3ccc4ncn(CC5CC5)c4c3)c2c1 [P-062] please.
**Result** 0.0001 to 1 µM

**Query** Which value of IC50 has been reported for COc1cc(-c2cnc3[nH]cc(-c4ccc5ncn(C(C)(C)C)c5c4)c3n2)ccc1C#N [P-354] in the records?
**Result** 0.0001 to 1 µM
